Reference source for all entries: patent US6737383B1

- Test system: blackgrass
- protocol: Test B pre/postemergence blackgrass
- Format: in vivo, Alopecurus myosuroides
- conditions: Preemergence, Rate 250 g/ha; scale of 0 to 10 where 0 is no effect and 10 is complete control
- Experimental: […] At the same time, these crop and weed species were also treated with postemergence applications of test chemicals formulated in the same manner. […] Treated plants and controls were maintained in a greenhouse for twelve to sixteen days, after which all species were compared to controls and visually evaluated. […]
Recorded measurements of Blackgrass plant response rating, one per entry

Known results for compounds:
CC(C)N(C(=O)n1oc(=O)n(CCC(F)(F)F)c1=O)c1ccc(F)cc1: 10
Cc1nc(Cl)sc1C(C)n1c(=O)on(C(=O)N(c2ccccc2)C(C)C)c1=O (stereo not shown): 0
CC(C)N(C(=O)n1oc(=O)n(C(CF)CF)c1=O)c1ccc(F)cc1: 9
CCc1cccc(CC)c1-n1c(=O)on(C(=O)N(c2ccccc2)C(C)C)c1=O: 0
CCN(C(=O)n1oc(=O)n(N(C)C)c1=O)C1CCCCC1: 0

Sample CC1CC1Cn1c(=O)on(C(=O)N(c2ccc(F)cc2)C(C)C)c1=O (stereo not shown) — what was its Blackgrass plant response rating? 9

Entry CC(C)N(C(=O)n1oc(=O)n(CC2CCC2)c1=O)c1ccc(F)cc1 has what Blackgrass plant response rating? 7

Query: Blackgrass plant response rating; subject: CC(C)N(C(=O)n1oc(=O)n(C(CF)CF)c1=O)c1ccccc1 10

Requested field: Blackgrass plant response rating. Item: C=C[Si](C)(C)Cn1c(=O)on(C(=O)N(c2ccc(Cl)cc2)C(C)C)c1=O 9

For CC(C)N(C(=O)n1oc(=O)n(CCc2ccccc2)c1=O)c1ccc(F)cc1 , what is its reported Blackgrass plant response rating? 0

* * *

- Tested on: pigweed
- protocol: Test B pre/postemergence pigweed
- Format: in vivo, Amaranthus retroflexus
- conditions: Preemergence, Rate 62 g/ha; scale of 0 to 10 where 0 is no effect and 10 is complete control
quantity: Redroot pigweed plant response rating

Solved cases (7 shown):
CC(C)N(C(=O)n1oc(=O)n(C(C)C2CCC2)c1=O)c1ccc(F)cc1F (centres unmarked) [Compound 702]: 2
CC(C)N(C(=O)n1oc(=O)n(N(C)c2ccccc2)c1=O)c1ccc(F)cc1 [Compound 177]: 0
CC(C)N(C(=O)n1oc(=O)n(CCc2ccccc2)c1=O)c1ccc(F)cc1 [Compound 250]: 0
CC(C)N(C(=O)n1oc(=O)n(C2CC2)c1=O)c1ccc(F)cc1F [Compound 299]: 9
CC(C)N(C(=O)n1oc(=O)n(Cc2nnc(Cl)s2)c1=O)c1ccc(Cl)cc1 [Compound 653]: 0
CC(C)N(C(=O)n1oc(=O)n([C@@H](C)c2ccccc2)c1=O)c1ccccc1 [Compound 173]: 0
CC(C)N(C(=O)n1oc(=O)n(Cc2nnc(Cl)s2)c1=O)c1ccc(F)cc1F [Compound 645]: 0

Reported Redroot pigweed plant response rating, compound CC(C)N(C(=O)n1oc(=O)n(C2CCCCCC2)c1=O)c1ccc(F)cc1 [Compound 340] : ____ 0

* * *

- Test system: surinam grass
- protocol: Test B pre/postemergence surinam grass
- Format: in vivo, Brachiaria decumbens
- conditions: Preemergence, Rate 500 g/ha; scale 0 to 10 (0 no effect, 10 complete control)
quantity: B. signalgrass plant response rating
Form: value (number only, do not type unit).

Answered cases to consult:
CC(C)N(C(=O)n1oc(=O)n(CC2CO2)c1=O)c1ccc(F)cc1 (stereo not shown) [Compound 188]: 7
CC(C)N(C(=O)n1oc(=O)n([C@@H](C)c2ccccc2)c1=O)c1ccccc1 [Compound 173]: 4
C=CCn1c(=O)on(C(=O)N(c2ccc(F)cc2)C(C)C)c1=O [Compound 146]: 10

Give surinam grass B. signalgrass plant response rating for CC(C)N(C(=O)n1oc(=O)n(C(C)C)c1=O)c1ccc(F)cc1F [Compound 109] 10
